molecular target: mVDAC1 N238K (Mus musculus, UniProt Q60932, N251K); assay: Fluorescence polarization NADH competition assay
Sequence (Q60932 14-296 N251K): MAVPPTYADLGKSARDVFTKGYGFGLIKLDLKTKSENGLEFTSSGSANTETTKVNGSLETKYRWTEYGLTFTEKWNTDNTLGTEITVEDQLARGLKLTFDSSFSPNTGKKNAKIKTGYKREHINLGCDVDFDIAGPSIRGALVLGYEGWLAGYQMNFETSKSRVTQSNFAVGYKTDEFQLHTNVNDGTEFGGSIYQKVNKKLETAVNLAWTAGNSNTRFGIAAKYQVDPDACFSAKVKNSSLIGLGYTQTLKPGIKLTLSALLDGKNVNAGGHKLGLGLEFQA
pKd: −log10 of the molar value.

{"columns": ["MOLECULE", "pKd"],
 "data": [
  ["O=C(CC(O)(c1nc2ccccc2s1)C(F)(F)F)c1cccc(Br)c1 (stereo not shown) [VA-C1]", 4.82],
  ["CC(=O)N(c1nc(COC(=O)c2ccsc2)cs1)c1ccccc1F [VA-D10]", 4.97],
  ["O=C1C(=Cc2ccc(Cl)cc2)CSc2ccccc21 [VA-D11]", 4.88],
  ["Cc1ccc(C(=O)OCC(=O)N=c2sccn2Cc2ccccc2Cl)s1 [VA-C6]", 4.83]
]}
